Molecular target: T1, recombinant human ErbB3 monomeric protein (cleaved rhErbB3) (human, UniProt P21860 20-643, limits assumed)
T1 construct: Monomer made by protease cleavage of the Fc fusion; also called Monomeric ErbB3
Test: SPR Biacore 37 C; supernatant antibody captured on anti-human Fc, cleaved rhErbB3 injected
Here the recorded koff is given for each entry.

binder	koff [s⁻¹]
Sh24C05-29 (antibody, human IgG1, kappa, V domains shown, Humanized, human IgG1/kappa) VH: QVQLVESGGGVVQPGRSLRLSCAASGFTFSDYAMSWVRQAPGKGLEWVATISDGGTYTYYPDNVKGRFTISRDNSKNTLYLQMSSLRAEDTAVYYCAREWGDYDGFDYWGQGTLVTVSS VL: DIQMTQSPSSLSASVGDRVTITCRASQEISGYLSWYQQKPGKAPKRLIYAASTLDSGVPSRFSGSGSGTEFTLTISSLQPEDFATYYCLQYDSYPYTFGQGTKLEIKR	0.000588
Sh24C05-15 (antibody, human IgG1, kappa, V domains shown, Humanized, human IgG1/kappa) VH: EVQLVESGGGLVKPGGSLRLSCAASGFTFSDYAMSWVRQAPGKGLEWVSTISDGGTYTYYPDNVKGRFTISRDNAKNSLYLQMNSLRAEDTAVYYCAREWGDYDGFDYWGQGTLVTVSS VL: DIQMTQSPSSLSASVGDRVTITCRASQEISGYLSWLQQKPGGAIKRLIYAASTLDSGVPSRFSGSGSGSDYTLTISSLQPEDFATYYCLQYDSYPYTFGQGTKLEIKR	0.000499
Sh24C05-34 (antibody, human IgG1, kappa, V domains shown, Humanized, human IgG1/kappa) VH: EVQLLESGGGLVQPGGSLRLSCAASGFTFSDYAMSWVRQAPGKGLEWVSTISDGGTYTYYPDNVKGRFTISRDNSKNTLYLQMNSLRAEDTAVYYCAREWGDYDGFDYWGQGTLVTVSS VL: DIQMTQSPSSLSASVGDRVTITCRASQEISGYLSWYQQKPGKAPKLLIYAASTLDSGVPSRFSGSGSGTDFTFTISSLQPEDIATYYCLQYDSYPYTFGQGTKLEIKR	0.006
